System: PKN2
reportedConditions: Compound Concentration (nM):1000;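 further: KINOMEscan scanMAX binding as percent activity remaining versus control; lower means stronger binding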
So I've got a bunch of compounds here, and I need their Percent Control values.
Field format: number, assumed %, no unit text.

Briefly, Percent Control measured for CC(C)COC(=O)c1ccc2c(c1)/C(=C/Nc1ccc(S(N)(=O)=O)cc1)C(=O)N2 [GW416981X] : 71

Briefly, Percent Control measured for CN1CCN(C(=O)c2ccc(NC(=O)Nc3ccc(N(C)c4ccnc(Nc5ccc(CS(C)(=O)=O)cc5)n4)cc3)cc2)CC1.Cl [GW830263A] : 100

Briefly, Percent Control measured for Cl.O=C(O[C@H]1CN[C@H](C#Cc2cc3ncnc(Nc4ccc5c(cnn5Cc5ccccc5)c4)c3s2)C1)N1CCOCC1 [GSK200398A] : 69

Briefly, Percent Control measured for COc1cccc(-n2ncc3c(N/N=C/c4ccncc4)ncnc32)c1 [GW784752X] : 100

----------
System: TNNI3K
reportedConditions: Compound Concentration (nM):1000
metric: Percent Control (%)
Field format: number, assumed %, no unit text.

Briefly, Percent Control measured for NS(=O)(=O)c1ccc(N/N=C2\C(=O)Nc3ccc(Cl)cc32)cc1 [GW280670X] : 100

Briefly, Percent Control measured for NS(=O)(=O)c1ccc(N/N=C2\C(=O)Nc3ccc(C(=O)NCCc4c[nH]cn4)cc32)cc1 [GW300660X] : 92

Briefly, Percent Control measured for Cl.O=C(Nc1ccc(Oc2ccc3[nH]c(NC(=O)c4ccco4)nc3c2)cc1)Nc1cc(C(F)(F)F)ccc1F [GW683134A] : 53

Briefly, Percent Control measured for COc1cccc(-c2c[nH]c3c(N/N=C/c4ccncc4)ncnc23)c1 [GW814408X] : 31

----------
Test system: GRK2
Construct: gene ADRBK1
reportedConditions: Compound Concentration (nM):1000
So I've got a bunch of molecules here, and I need their Percent Control values.

Briefly, Percent Control measured for COc1cccc(-n2ncc3c(N/N=C/c4ccncc4)ncnc32)c1 [GW784752X] : 84%

Briefly, Percent Control measured for CN(C)CCNC(=O)Nc1ccc(N(C)c2ccnc(Nc3ccc(CS(C)(=O)=O)cc3)n2)cc1.Cl [GW830900A] : 100%

Briefly, Percent Control measured for COC(=O)Nc1nc2ccc(Oc3ccc(NC(=O)Nc4cc(C(F)(F)F)ccc4F)cc3)cc2s1.Cl [GW693917A] : 91%

Briefly, Percent Control measured for Cc1cc(O)cc(C)c1/C=C/c1cncc(C(N)=O)c1 [GW435821X] : 100%

Briefly, Percent Control measured for Cl.O=S1CCN(Cc2ccc(-c3ccc4ncnc(Nc5ccc(OCc6ccccc6)c(F)c5)c4c3)o2)CC1 [GW576924A] : 100%

Briefly, Percent Control measured for Cl.O=C(Nc1ccc(Oc2ccc3[nH]c(NC(=O)c4ccccc4)nc3c2)cc1)Nc1cc(C(F)(F)F)ccc1F [GW709042A] : 100%

Briefly, Percent Control measured for Cl.c1ccc(Cc2nc3ccc(Nc4ncnc5ccccc45)cc3[nH]2)cc1 [GR269666A] : 100%

Briefly, Percent Control measured for COc1cc(C=NNc2ncnc3c2cnn3-c2ccccc2)ccc1O [GW513184X] : 100%

Briefly, Percent Control measured for Cl.O=C(O[C@H]1CN[C@H](C#Cc2cc3ncnc(Nc4ccc5c(cnn5Cc5ccccc5)c4)c3s2)C1)N1CCOCC1 [GSK200398A] : 100%

Briefly, Percent Control measured for NS(=O)(=O)c1ccc(Nc2ncc(-c3ccccc3)o2)cc1 [GW572399X] : 100%

Briefly, Percent Control measured for CN(C)c1cc2c(Nc3ccc4c(cnn4Cc4ccccc4)c3)ncnc2cn1 [GW282974X] : 100%

Briefly, Percent Control measured for O=C(Nc1n[nH]c2nc(-c3ccc(O)cc3)c(Br)cc12)C1CC1 [SB-725317] : 100%

Briefly, Percent Control measured for CCS(=O)(=O)c1ccc(OC)c(Nc2ncc(-c3cccc(F)c3)o2)c1 [GW621970X] : 100%

Briefly, Percent Control measured for COc1ccc2cc(-c3c(-c4ccncc4)nc(-c4ccc(S(C)(=O)=O)cc4C)n3C)ccc2c1 [SB-633825] : 81%

Briefly, Percent Control measured for CCn1c(-c2nonc2N)nc2c(C#CC(C)(C)O)nc(OCCNC)cc21.Cl [GSK949675] : 100%

Briefly, Percent Control measured for C[C@@H](Oc1cc(-n2cnc3ccc(OC4CCN(C)CC4)cc32)sc1C(N)=O)c1ccccc1Cl [GSK579289A] : 86%

Briefly, Percent Control measured for CC1=C(C(=O)Nc2ccc3[nH]ncc3c2)C(c2ccc3ccccc3c2)CC(=O)N1 (centres unmarked) [GSK270822A] : 38%
